- Tested on: Saccharomyces cerevisiae
- protocol-text: protein stability index of tFT-peptide fusion (C-terminal peptide) (PSI (0-1 scale)); higher = more stable (slower turnover)
- assay-setup: genetic background: das1 deletion; temperature: 30 C
Hi, to clarify the labels: 1 (yes) covers protein stability index from 0.7 upward, 0 (no) covers anything below 0.7.

sequence	assigned-class
TDELWEMLLDQA [MET12 C-terminal 12 aa]	1 (yes)
GQALLDQFAKFK [LSC1 C-terminal 12 aa]	1 (yes)
ISISHSAVPNIV [YAL069W C-terminal 12 aa]	0 (no)

// query Is protein stability index for RKFQPPPGFKRK [SMB1 C-terminal 12 aa] at or above 0.7?
// result 1 (yes)
